# Tested on: P388 leukemia ip, CD2F1 mice, survival T/C
# EXPERIMENT SUMMARY: NCI In Vivo Anticancer Drug Screen. Data for tumor model P388 Leukemia (intraperitoneal) in CD2F1 (CDF1) mice
# TEST CONTEXT: endpoint: median survival time; dose: 240.0 mg/kg/injection; schedule: Q01DX005 (ip); vehicle: saline; higher = longer survival
Inconclusive results and toxic doses are left out.
RECORDED METRIC: T/C

Consider the worked cases shown below.
Record summary for COC(=O)c1nc(=S)[nH]c(C(=O)OC)c1C(=O)c1ccc(OC)cc1 : reported T/C = 103 % of control

Record summary for CN1CCO[Si](C)(C)C[Si](C)(C)OCC1 : reported T/C = 105 % of control

Record summary for COC(=O)C1(CC(=O)c2ccc(OC)cc2)NC(=S)NC(=O)C1C#N (centres undefined) : reported T/C = 86 % of control

Record summary for CC1OC(Sc2ncc[nH]2)C(O)C(O)C1O (centres undefined) : reported T/C = 100 % of control

Record summary for CNc1cc[nH]c(=O)c1NC(C)=O : reported T/C = 106 % of control

***
Record summary for O=C1NN2CCCN=C2c2ccncc21 : reported T/C = 93 % of control

Record summary for CN1CCC(=NO)CC1 : reported T/C = 94 % of control

Record summary for CCCCN(CCCC)c1cc(=O)nc2ccccn12 : reported T/C = 100 % of control

Record summary for O=C1NCC(CCl)O1 (centres undefined) : reported T/C = 102 % of control
